A short record of IC50 observed with A disintegrin and metalloproteinase with thrombospondin motifs 4 (Homo sapiens) follows.
Sequence (O75173 whole entry): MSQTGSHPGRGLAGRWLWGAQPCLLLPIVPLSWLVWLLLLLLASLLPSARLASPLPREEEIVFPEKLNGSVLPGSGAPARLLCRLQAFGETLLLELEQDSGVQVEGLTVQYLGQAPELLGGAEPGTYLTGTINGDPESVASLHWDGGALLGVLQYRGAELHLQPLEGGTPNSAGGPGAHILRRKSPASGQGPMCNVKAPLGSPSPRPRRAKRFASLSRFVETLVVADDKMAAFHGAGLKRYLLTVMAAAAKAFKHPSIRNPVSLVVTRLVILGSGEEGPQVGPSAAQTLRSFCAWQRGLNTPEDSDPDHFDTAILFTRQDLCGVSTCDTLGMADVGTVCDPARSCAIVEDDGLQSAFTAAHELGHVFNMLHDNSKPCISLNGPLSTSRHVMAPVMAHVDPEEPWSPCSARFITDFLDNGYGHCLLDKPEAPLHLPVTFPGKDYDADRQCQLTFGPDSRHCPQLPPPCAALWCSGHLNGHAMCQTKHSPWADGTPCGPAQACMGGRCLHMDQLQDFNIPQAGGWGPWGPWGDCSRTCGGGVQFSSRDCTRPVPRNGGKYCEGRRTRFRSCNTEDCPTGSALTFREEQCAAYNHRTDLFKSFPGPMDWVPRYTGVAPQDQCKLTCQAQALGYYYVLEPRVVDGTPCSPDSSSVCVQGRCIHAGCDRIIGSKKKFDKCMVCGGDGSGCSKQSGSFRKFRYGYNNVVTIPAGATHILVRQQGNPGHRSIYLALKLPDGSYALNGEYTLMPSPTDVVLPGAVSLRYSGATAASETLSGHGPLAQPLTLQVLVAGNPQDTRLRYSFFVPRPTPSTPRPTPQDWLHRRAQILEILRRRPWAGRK
Unit nM implied. Number only.

Problem: IC50 for Cc1noc(C)c1CCC1CCN(S(=O)(=O)CC2(N(O)C=O)CCN(C(=O)N3CCC3)CC2)CC1 ?
Solution: 11

Problem: Moving on to Cc1noc(C)c1CCC1CCN(S(=O)(=O)CC2(N(O)C=O)CCC2)CC1
Solution: 51

Problem: Moving on to Cc1cc(S(C)(=O)=O)ccc1CCC1CCN(S(=O)(=O)CC2(N(O)C=O)CCOCC2)CC1
Solution: 5.8

Problem: Moving on to Cc1noc(C)c1CCC1CCN(S(=O)(=O)CC2(N(O)C=O)CCN(C(=O)C3CCC3)CC2)CC1
Solution: 10

Problem: Moving on to Cc1cc(CCC2CCN(S(=O)(=O)CC3(N(O)C=O)CCOCC3)CC2)c(C)cn1
Solution: 18

====

Run description: Inhibition of aggrecanase activity in human late stage diseased osteoarthritis cartilage explant assessed as inhibition of aggrecan degradation measuring ARGSVIL neo-peptide release
Endpoint name: pIC50
Lab note — pIC50 values are minus log10 of concentrations in M.

Problem: pIC50 for Cc1noc(C)c1CCC1CCN(S(=O)(=O)CC2(N(O)C=O)CCOCC2)CC1 ?
Solution: 6.82

====

Run description: Clearance in rat at 2 mg/kg, iv
Type: ADME, organism-based
Parameters: dose 2 mg/kg, route intravenous
Study conditions: in vivo
For each entry below, report its clearance value.
Unit mL/min/kg implied. Number only.

Problem: clearance for Cc1nsc(C)c1CCC1CCN(S(=O)(=O)CC2(N(O)C=O)CCOCC2)CC1 ?
Solution: 18

Problem: Moving on to Cc1cc(F)ccc1CCC1CCN(S(=O)(=O)CC2(N(O)C=O)CCOCC2)CC1
Solution: 15

Problem: Moving on to Cc1noc(C)c1CCC1CCN(S(=O)(=O)CC2(N(O)C=O)CCOCC2)CC1
Solution: 24

Problem: Moving on to Cc1cc(CCC2CCN(S(=O)(=O)CC3(N(O)C=O)CCOCC3)CC2)c(C)cn1
Solution: 20

====

For each entry below, report its microsomal CLint value.
Run description: Intrinsic clearance in human liver microsomes
Type: ADME, Microsome
Unit µL/min/mg implied. Number only.

Problem: microsomal CLint for Cc1nsc(C)c1CCC1CCN(S(=O)(=O)CC2(N(O)C=O)CCOCC2)CC1 ?
Solution: 8.5

Problem: Moving on to Cc1cc(CCC2CCN(S(=O)(=O)CC3(N(O)C=O)CCOCC3)CC2)c(C)cn1
Solution: 4.3

====

Measured target: Matrix metalloproteinase-14 (Homo sapiens, UniProt P50281)
Run description: Inhibition of recombinant human MMP-14 assessed as substrate cleavage after 20 hrs by fluorescence assay
Endpoint name: IC50

Problem: Recorded IC50 for Cc1cc(CCC2CCN(S(=O)(=O)CC3(N(O)C=O)CCOCC3)CC2)c(C)cn1 with Matrix metalloproteinase-14 (Homo sapiens, UniProt P50281), please?
Solution: > 100 µM

Problem: Moving on to Cc1noc(C)c1CCC1CCN(S(=O)(=O)CC2(N(O)C=O)CCN(C(=O)C3CCC3)CC2)CC1
Solution: > 10 µM

Problem: Moving on to Cc1noc(C)c1CCC1CCN(S(=O)(=O)CC2(N(O)C=O)CCN(C)CC2)CC1
Solution: > 10 µM

Problem: Moving on to Cc1cnc(C)c(CCC2CCN(S(=O)(=O)CC3(N(O)C=O)CCOCC3)CC2)c1
Solution: > 10 µM

Problem: Moving on to CS(=O)(=O)c1ccc(CCC2CCN(S(=O)(=O)CC3(N(O)C=O)CCOCC3)CC2)c(C2CC2)c1
Solution: > 10 µM

Problem: Moving on to Cc1cccnc1CCC1CCN(S(=O)(=O)CC2(N(O)C=O)CCOCC2)CC1
Solution: 2.9 µM

Problem: Moving on to CN1CCC(CS(=O)(=O)N2CCN(c3ccc(F)cc3)CC2)(N(O)C=O)CC1
Solution: 2.9 µM

Problem: Moving on to CC(C)(CS(=O)(=O)N1CCN(c2ccc(F)cc2)CC1)N(O)C=O
Solution: 1.4 µM

Problem: Moving on to Cc1noc(C)c1CCC1CCN(S(=O)(=O)CC2(N(O)C=O)CCC2)CC1
Solution: > 10 µM

====

Measured target: 72 kDa type IV collagenase (Homo sapiens)
Sequence (P08253 whole entry): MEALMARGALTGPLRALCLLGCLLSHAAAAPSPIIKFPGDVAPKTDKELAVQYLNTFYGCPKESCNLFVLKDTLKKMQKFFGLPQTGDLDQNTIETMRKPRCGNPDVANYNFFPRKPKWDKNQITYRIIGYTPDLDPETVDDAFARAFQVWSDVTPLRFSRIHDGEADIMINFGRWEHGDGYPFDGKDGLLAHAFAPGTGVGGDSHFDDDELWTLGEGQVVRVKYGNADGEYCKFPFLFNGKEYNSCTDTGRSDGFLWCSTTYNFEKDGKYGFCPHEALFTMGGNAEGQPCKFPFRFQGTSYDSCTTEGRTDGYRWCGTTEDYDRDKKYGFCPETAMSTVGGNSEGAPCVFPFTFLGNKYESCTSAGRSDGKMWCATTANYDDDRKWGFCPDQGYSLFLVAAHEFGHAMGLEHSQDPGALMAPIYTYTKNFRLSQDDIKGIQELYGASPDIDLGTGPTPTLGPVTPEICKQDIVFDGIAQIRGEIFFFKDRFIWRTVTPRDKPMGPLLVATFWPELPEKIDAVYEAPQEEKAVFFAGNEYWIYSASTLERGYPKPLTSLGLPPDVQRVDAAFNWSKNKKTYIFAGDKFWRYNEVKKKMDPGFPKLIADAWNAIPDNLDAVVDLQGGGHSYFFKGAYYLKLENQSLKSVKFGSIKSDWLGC
Run description: Inhibition of recombinant human MMP-2 assessed as substrate cleavage after 20 hrs by fluorescence assay
Endpoint name: IC50

Problem: IC50 for Cc1noc(C)c1CCC1CCN(S(=O)(=O)CC2(N(O)C=O)CCOC(C)(C)C2)CC1 (stereo unspecified) ?
Solution: > 10 µM

Problem: Moving on to CS(=O)(=O)c1ccc(CCC2CCN(S(=O)(=O)CC3(N(O)C=O)CCOCC3)CC2)c(C2CC2)c1
Solution: > 10 µM

Problem: Moving on to Cc1ccncc1CCC1CCN(S(=O)(=O)CC2(N(O)C=O)CCOCC2)CC1
Solution: 3.5 µM

Problem: Moving on to O=CN(O)C1(CS(=O)(=O)N2CCC(CCc3ccccc3)CC2)CCOCC1
Solution: 0.15 µM

Problem: Moving on to Cc1noc(C)c1CCC1CCN(S(=O)(=O)CC2(N(O)C=O)CCOCC2)CC1
Solution: > 23 µM

Problem: Moving on to Cc1noc(C)c1CCC1CCN(S(=O)(=O)CC2(N(O)C=O)CCCCCC2)CC1
Solution: > 10 µM

Problem: Moving on to Cc1cccnc1CCC1CCN(S(=O)(=O)CC2(N(O)C=O)CCOCC2)CC1
Solution: 1.1 µM

Problem: Moving on to Cc1cc(F)ccc1CCC1CCN(S(=O)(=O)CC2(N(O)C=O)CCOCC2)CC1
Solution: 1.3 µM

Problem: Moving on to Cc1cc(CCC2CCN(S(=O)(=O)CC3(N(O)C=O)CCOCC3)CC2)c(C)cn1
Solution: 61 µM

Problem: Moving on to Cc1noc(C)c1CCC1CCN(S(=O)(=O)CC2(N(O)C=O)CCCCC2)CC1
Solution: > 10 µM

Problem: Moving on to Cc1noc(C)c1CCC1CCN(S(=O)(=O)CC2(N(O)C=O)CCN(S(C)(=O)=O)CC2)CC1
Solution: > 10 µM

Problem: Moving on to Cc1cnc(C)c(CCC2CCN(S(=O)(=O)CC3(N(O)C=O)CCOCC3)CC2)c1
Solution: > 10 µM

Problem: Moving on to Cc1noc(C)c1CCC1CCN(S(=O)(=O)CC2(N(O)C=O)CCC2)CC1
Solution: > 10 µM

Problem: Moving on to Cc1noc(C)c1CCC1CCN(S(=O)(=O)CC2(N(O)C=O)CCN(C(=O)C3CCC3)CC2)CC1
Solution: > 10 µM

Problem: Moving on to Cc1ncccc1CCC1CCN(S(=O)(=O)CC2(N(O)C=O)CCOCC2)CC1
Solution: 3.8 µM

Problem: Moving on to Cc1noc(C)c1CCC1CCN(S(=O)(=O)CC2(N(O)C=O)CCN(C(=O)N3CCC3)CC2)CC1
Solution: > 10 µM

Problem: Moving on to Cc1ccccc1CCC1CCN(S(=O)(=O)CC2(N(O)C=O)CCOCC2)CC1
Solution: 0.62 µM

Problem: Moving on to Cc1noc(C)c1CCC1CCN(S(=O)(=O)CC2(N(O)C=O)CCCC2)CC1
Solution: > 10 µM

Problem: Moving on to Cc1cc(S(C)(=O)=O)ccc1CCC1CCN(S(=O)(=O)CC2(N(O)C=O)CCOCC2)CC1
Solution: 3.3 µM

Problem: Moving on to Cc1noc(C)c1CCC1CCN(S(=O)(=O)CC2(N(O)C=O)CCS(=O)(=O)CC2)CC1
Solution: > 10 µM

Problem: Moving on to CC(=O)N1CCC(CS(=O)(=O)N2CCC(CCc3c(C)noc3C)CC2)(N(O)C=O)CC1
Solution: > 10 µM

Problem: Moving on to Cc1nsc(C)c1CCC1CCN(S(=O)(=O)CC2(N(O)C=O)CCOCC2)CC1
Solution: > 10 µM

Problem: Moving on to Cc1noc(C)c1CCC1CCN(S(=O)(=O)CC2(N(O)C=O)CCC(F)(F)CC2)CC1
Solution: > 10 µM

Problem: Moving on to Cc1cc(C)c(CCC2CCN(S(=O)(=O)CC3(N(O)C=O)CCOCC3)CC2)cn1
Solution: 7.6 µM

Problem: Moving on to Cc1noc(C)c1CCC1CCN(S(=O)(=O)CC2(N(O)C=O)CCN(C)CC2)CC1
Solution: > 10 µM

Problem: Moving on to Cc1cc(Cl)ccc1CCC1CCN(S(=O)(=O)CC2(N(O)C=O)CCOCC2)CC1
Solution: 1.4 µM

====

Run description: Half life in rat at 2 mg/kg, iv and 3 to 10 mg/kg, po
Format: ADME, organism-based
Study conditions: in vivo
Endpoint name: half-life (h)
Unit h implied. Number only.

Problem: half-life for Cc1noc(C)c1CCC1CCN(S(=O)(=O)C[C@](C)(C[C@H](C)c2ncc(F)cn2)N(O)C=O)CC1 ?
Solution: 11

Problem: Moving on to Cc1noc(C)c1CCC1CCN(S(=O)(=O)CC2(N(O)C=O)CCOCC2)CC1
Solution: 8.9

Recorded values, source ChEMBL document CHEMBL1781898.
